Biological target: T1, human CD3 on CD3+ Jurkat cells (human, UniProt P07766 23-207)
T1 construct: whole, on cells; Native CD3 complex on cells; the other CD3 chains are not specified for this assay; also called Human CD3+ Jurkat
T1 sequence (P07766 23-207): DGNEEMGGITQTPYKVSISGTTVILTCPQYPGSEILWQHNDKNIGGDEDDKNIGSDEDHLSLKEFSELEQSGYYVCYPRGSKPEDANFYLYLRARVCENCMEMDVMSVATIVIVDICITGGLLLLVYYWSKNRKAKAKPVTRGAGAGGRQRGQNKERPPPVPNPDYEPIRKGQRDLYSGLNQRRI
Test: flow cytometry on CD3+ Jurkat cells, ratio of MFI at pH 6.0 to pH 7.4
Method: Specificity of the anti-CD3 antibodies for human CD3+ Jurkat cells compared to CHO-S cells at pH 6.0 and 7.4 was determined using a FACS cell binding assay. Briefly, CD3+ human Jurkat cells and CHO-S cells were thawed and washed with cold PBSF buffer, pH 7.4 (PBS+0.1% BSA, pH 7.4). About 200,000 cells were aliquoted per well of a 96-well plate and pelleted by centrifugation (5 minutes at 500×g). […] Binding was analyzed on FACS Canto II. Cell binding assays. […] Binding was analyzed on FACS Canto II.
readout.label: MFI pH 6.0/MFI pH 7.4
Numbers only.

Example binders with recorded MFI pH 6.0/MFI pH 7.4:
binder="SAD10319_P01_H02 (ADI-48625) (antibody, V domains shown, IgG; also called Ab242) VH: QVQLVQSGAEVKKPGASVKVSCKASGYTFTDYAMHWVRQAPGQRLEWMGWINPSTGATVYSQKFQGRVTITRDTSASTAYMELSSLRSEDTAVYYCARDAYHHYFYDVWGQGTLVTVSS VL: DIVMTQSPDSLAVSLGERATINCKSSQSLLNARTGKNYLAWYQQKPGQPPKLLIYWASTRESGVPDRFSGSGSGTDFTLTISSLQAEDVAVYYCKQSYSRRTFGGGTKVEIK" numeric_value=13.6
binder="SAD10319_P03_C07 (ADI-48634) (antibody, V domains shown, IgG; also called Ab17) VH: QVQLVQSGAEVKKPGASVKVSCKASGYTFESYDMHWVRQAPGQRLEWMGWIDAGTGATTYSQKFQGRVTITRDTSASTAYMELSSLRSEDTAVYYCARDAYHHYFYDVWGQGTLVTVSS VL: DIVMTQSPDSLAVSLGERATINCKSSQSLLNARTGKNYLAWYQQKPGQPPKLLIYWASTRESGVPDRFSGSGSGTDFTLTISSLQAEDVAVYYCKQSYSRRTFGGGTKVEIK" numeric_value=14.7
binder="SAD10320_P01_A02 (ADI-48646) (antibody, V domains shown, IgG; also called Ab53) VH: QVQLVQSGAEVKKPGASVKVSCKASGFNIKDYYMHWVRQAPGQRLEWMGWIDLENANTIYDAKFQGRVTITRDTSASTAYMELSSLRSEDTAVYYCARDAYPHYFYDVWGQGTLVTVSS VL: DIVMTQSPDSLAVSLGERATINCKSSQSLLNARTGKNYLAWYQQKPGQPPKLLIYWASTRESGVPDRFSGSGSGTDFTLTISSLQAEDVAVYYCKQSYHERTFGGGTKVEIK" numeric_value=24.1
binder="SAD10320_P03_D09 (ADI-48655) (antibody, V domains shown, IgG; also called Ab100) VH: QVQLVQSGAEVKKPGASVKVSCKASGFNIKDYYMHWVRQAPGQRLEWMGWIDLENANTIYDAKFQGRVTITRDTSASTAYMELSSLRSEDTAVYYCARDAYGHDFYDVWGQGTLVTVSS VL: DIVMTQSPDSLAVSLGERATINCKSSQSLLNARTGKNYLAWYQQKPGQPPKLLIYWASTRESGVPDRFSGSGSGTDFTLTISSLQAEDVAVYYCKQSWHRRTFGGGTKVEIK" numeric_value=2

# map each binder to its MFI pH 6.0/MFI pH 7.4
1. SAD10320_P02_H05 (ADI-48652) (antibody, V domains shown, IgG; also called Ab81) VH: QVQLVQSGAEVKKPGASVKVSCKASGFNIKDYYMHWVRQAPGQRLEWMGWIDLENANTIYDAKFQGRVTITRDTSASTAYMELSSLRSEDTAVYYCARDAHHRYFYDVWGQGTLVTVSS VL: DIVMTQSPDSLAVSLGERATINCKSSQSLLNARTGKNYLAWYQQKPGQPPKLLIYWASTRESGVPDRFSGSGSGTDFTLTISSLQAEDVAVYYCKQSHSRRTFGGGTKVEIK
2. SAD10319_P01_C01 (ADI-48621) (antibody, V domains shown, IgG; also called Ab230) VH: QVQLVQSGAEVKKPGASVKVSCKASGYTFTDYDMHWVRQAPGQRLEWMGWIDAGTGLTKYSQKFQGRVTITRDTSASTAYMELSSLRSEDTAVYYCARDHYGHYFYDVWGQGTLVTVSS VL: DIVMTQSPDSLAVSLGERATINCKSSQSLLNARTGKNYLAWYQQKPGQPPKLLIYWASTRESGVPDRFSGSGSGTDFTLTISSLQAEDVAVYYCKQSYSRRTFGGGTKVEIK

Reply |
1. 1.2
2. 14.8

Please state, for each entry, its recorded MFI pH 6.0/MFI pH 7.4.
1. SAD10318_P02_B05 (ADI-48596) (antibody, V domains shown, IgG; also called Ab179) VH: QVQLVQSGAEVKKPGASVKVSCKASGFNIKDYYMHWVRQAPGQRLEWMGWIDLENANTIYDAKFQGRVTITRDTSASTAYMELSSLRSEDTAVYYCARDAYGRHFYDHWGQGTLVTVSS VL: DIVMTQSPDSLAVSLGERATINCKSSQSLLNAHTGKNYLAWYQQKPGQPPKLLIYWASTRESGVPDRFSGSGSGTDFTLTISSLQAEDVAVYYCKQSYSRRTFGGGTKVEIK
2. SAD10318_P02_H04 (ADI-48594) (antibody, V domains shown, IgG; also called Ab169) VH: QVQLVQSGAEVKKPGASVKVSCKASGFNIKDYYMHWVRQAPGQRLEWMGWIDLENANTIYDAKFQGRVTITRDTSASTAYMELSSLRSEDTAVYYCARDAYHRYFYDHWGQGTLVTVSS VL: DIVMTQSPDSLAVSLGERATINCKSSQSLLHARTGHNYLAWYQQKPGQPPKLLIYWASTRESGVPDRFSGSGSGTDFTLTISSLQAEDVAVYYCKQSYSRRTFGGGTKVEIK
3. SAD10318_P04_C11 (ADI-48615) (antibody, V domains shown, IgG; also called Ab218) VH: QVQLVQSGAEVKKPGASVKVSCKASGFNIKDYYMHWVRQAPGQRLEWMGWIDLENANTIYDAKFQGRVTITRDTSASTAYMELSSLRSEDTAVYYCARDHHGRYFYDVWGQGTLVTVSS VL: DIVMTQSPDSLAVSLGERATINCKSSQSLLNARTGHNHLAWYQQKPGQPPKLLIYWASTRESGVPDRFSGSGSGTDFTLTISSLQAEDVAVYYCKQSYSRRTFGGGTKVEIK
4. SAD10318_P01_F03 (ADI-48589) (antibody, V domains shown, IgG; also called Ab80) VH: QVQLVQSGAEVKKPGASVKVSCKASGFNIKDYYMHWVRQAPGQRLEWMGWIDLENANTIYDAKFQGRVTITRDTSASTAYMELSSLRSEDTAVYYCARDAHGRYFYDHWGQGTLVTVSS VL: DIVMTQSPDSLAVSLGERATINCKSSQSLLNAHTGHNYLAWYQQKPGQPPKLLIYWASTRESGVPDRFSGSGSGTDFTLTISSLQAEDVAVYYCKQSYSHRTFGGGTKVEIK

Reply |
0.6
3.2
1.1
11
